These entries and their values trace back to paper PMC13494018.

biological target: CD276, Q5ZPR3
Sequence (Q5ZPR3 whole entry): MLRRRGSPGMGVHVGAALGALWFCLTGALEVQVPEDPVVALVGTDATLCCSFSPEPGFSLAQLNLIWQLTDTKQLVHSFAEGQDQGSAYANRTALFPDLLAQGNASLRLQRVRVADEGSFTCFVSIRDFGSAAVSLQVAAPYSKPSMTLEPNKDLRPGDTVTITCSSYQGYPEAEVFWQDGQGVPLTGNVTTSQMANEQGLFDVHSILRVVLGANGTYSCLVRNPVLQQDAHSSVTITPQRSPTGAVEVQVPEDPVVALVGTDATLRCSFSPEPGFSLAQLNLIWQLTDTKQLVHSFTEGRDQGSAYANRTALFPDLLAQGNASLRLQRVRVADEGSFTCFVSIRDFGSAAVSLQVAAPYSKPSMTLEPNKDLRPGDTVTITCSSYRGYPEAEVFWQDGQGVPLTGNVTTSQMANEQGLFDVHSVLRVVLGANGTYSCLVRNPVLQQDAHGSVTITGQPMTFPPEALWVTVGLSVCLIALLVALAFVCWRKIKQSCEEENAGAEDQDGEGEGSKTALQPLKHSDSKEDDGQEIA
Labels: y (active), n (inactive)

{"Binder": "design_616_e8336982-fa4d-4d7c-b06f-9007953e1994_1848_dldesign_0_cycle1_af2pred (protein) GMAEKEKEYEEKLKEYKAKAKEAAKLTVEDPEAGAKKFKEIIEKAAKDFPERAKEIEEELLKVYREALAAAARAAIAAARA", "Class Assignment": "n"}
{"Binder": "design_623_6e2e8b1f-5d9a-4413-9869-27a184816b12_873_dldesign_0_cycle1_af2pred (protein) SENVKKAKALAAKSKELLEKAKKGDAETAQKALKEISKLANELAKLATSSPAADQAATNAALAVAVEAAEEASKIAREKKA", "Class Assignment": "n"}
{"Binder": "design_610_f34cc193-997c-4684-af32-2a8002718429_1156_dldesign_0_cycle1_af2pred (protein) NPLVKQAEKNYKKAKEMAELGLASTDPLAIRSYAAFGDSLYNNAAELLKKAGKEEEAKKVEAEGEEKKAALLAKAKAAA", "Class Assignment": "n"}
{"Binder": "design_488_244881a1-ba0c-4c08-ad9c-1f64cf93580a_2073_dldesign_0_cycle1_af2pred (protein) GSMEELKERAKRIFEEANRVLARASRVATANPAALPLASRAIAEAVRAQELANEALKTDPETGKELLERAEEELREARRYLEEAEAA", "Class Assignment": "n"}
{"Binder": "design_486_d4f32670-1303-4d79-8413-1b14cb3eff50_440_dldesign_0_cycle1_af2pred (protein) AGKEIAKKMGKAVAERLAKQAPSVAEEAKKAAEAIEKGDYEEAKKEAEKALEIGKKNPKEYKVVKAGVETLKVLADAIAAS", "Class Assignment": "n"}
{"Binder": "design_610_f34cc193-997c-4684-af32-2a8002718429_921_dldesign_0_cycle1_af2pred (protein) AEAVAVAAMLGLLRNAADHPESAEKLAEIARDMALATGVPAEKVKEVFEEGARYAREKGNEEAAKIIEEKGEEAVKAAKAA", "Class Assignment": "n"}
{"Binder": "design_613_5efed0bc-64ba-423b-b3f9-a246574e49bb_1354_dldesign_0_cycle1_af2pred (protein) GEALKEALRQKALEAANKALALTSQLWTKDPARAQPAIALIIQGLETGDPKYFFEAAEKVAADPEAAGAAKAAGEYMEKANKL", "Class Assignment": "n"}
{"Binder": "design_621_7e0052dc-ae49-49a0-b99f-9f3ee649cc2f_2068_dldesign_0_cycle1_af2pred (protein) DETLKKAKEALKKAAKAAKKIGDEEIAKKVEEALKLLTPESAELALAMAEALLASLKTADGKENAAKIATALRSGVANVAAA", "Class Assignment": "n"}
{"Binder": "design_614_ef6b398b-10cb-4a07-8087-96dafb4f9c83_88_dldesign_0_cycle1_af2pred (protein) GAALEEALRARAEAARRAMVAVSQAYQLDPALGNEYLARLSEAIAAAEKVLAEGKAKTPEAAAKAVKAAAEEIAALAEEIAAAVEALK", "Class Assignment": "n"}
{"Binder": "design_621_7e0052dc-ae49-49a0-b99f-9f3ee649cc2f_452_dldesign_0_cycle1_af2pred (protein) EEDERRAEELRRRAEEMLEAAKRAASLPPAERARLLGEAARVVEEARELAERDPRYRPVYDLAVAAFNALATAVGRALAAAA", "Class Assignment": "n"}
{"Binder": "design_620_fbd04095-bef7-46a9-992d-f2cb8915922f_347_dldesign_0_cycle1_af2pred (protein) DAVAAGQALLYAAKSQGYIGKAKKAVKEGKLEEAKEYAEKAEEYAKKSEEYAKQSGDAAVQAQAKKVQEQVKKTKEEVKKAE", "Class Assignment": "n"}
{"Binder": "design_621_7e0052dc-ae49-49a0-b99f-9f3ee649cc2f_606_dldesign_0_cycle1_af2pred (protein) DVAEVLVRTAQAVARQAQAAAALSPEEALAVAQANQQTVAVLLAAAKAAGSAEAVAAAQQAQATVAAVIAAAQARLAA", "Class Assignment": "y"}
{"Binder": "design_488_244881a1-ba0c-4c08-ad9c-1f64cf93580a_2145_dldesign_0_cycle1_af2pred (protein) MKEEEVEKKIEEAAKIAGITMRVLKKLLPDDPFLATQLAMKVAVELGKKVGELAGSEEVEKRAYEAAIEAMMKAAV", "Class Assignment": "n"}
{"Binder": "design_487_778f5c6d-c470-43b8-8f82-464af6177e08_256_dldesign_0_cycle1_af2pred (protein) GEALEKAKEYEKEANEAAAKGKATTPAEGALYFLKAAALYAKAAEEYKKAGDEKNAKEAEAKAKEATANMIALSKQAIAA", "Class Assignment": "n"}
{"Binder": "design_618_d4ffd631-0ea2-432e-ba0f-bd3d6297b2a0_400_dldesign_0_cycle1_af2pred (protein) SSSLIDRLTGIALKGLSIAQGVLDKVEAGEATPEEIEEGIKAAEESEKAAKELSKLLAAQPAASEYYKKLAERAKEYKEKLKKALA", "Class Assignment": "n"}
{"Binder": "design_621_7e0052dc-ae49-49a0-b99f-9f3ee649cc2f_375_dldesign_0_cycle1_af2pred (protein) SQAAQIALNAAKSLAENIKKYAEVMSEEEAKGAIELLYDLAKYAKKEDPELGKKAEKIAEEAKKYVEKVFKEKKEEEEK", "Class Assignment": "n"}
{"Binder": "design_617_b3fadc1d-0db4-4da8-8433-818493aa2ab2_943_dldesign_0_cycle1_af2pred (protein) AEAAQEAAVADMEKAAAIAKKYAELFPSTADALIKAAEDALAAVKANKETAAETAKAGLKALNATIAAAMRQALADSAA", "Class Assignment": "n"}
{"Binder": "design_391_ca6baf5d-2451-47ba-bffc-fc886679966a_2026_dldesign_0_cycle1_af2pred (protein) AAKEALEKAKEKAEEIKAIADDVAKKAAAGTITPEEVAAALAKAIELAKEASEYLKEVPEAEAEEIAREVNAAMAKLNKAAVKALA", "Class Assignment": "n"}
